The origin of these recorded values is paper PMC4336329.

The reader will find reported hERG current change (%, negative = inhibition) at 10uM values listed item by item below.
- system-under-test: human ether-à-go-go-related gene (hERG) potassium channel (human);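 also: peak tail current of the secondary pulse compared with the same well before compound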
- Sequence (Q12809 whole entry, looked up): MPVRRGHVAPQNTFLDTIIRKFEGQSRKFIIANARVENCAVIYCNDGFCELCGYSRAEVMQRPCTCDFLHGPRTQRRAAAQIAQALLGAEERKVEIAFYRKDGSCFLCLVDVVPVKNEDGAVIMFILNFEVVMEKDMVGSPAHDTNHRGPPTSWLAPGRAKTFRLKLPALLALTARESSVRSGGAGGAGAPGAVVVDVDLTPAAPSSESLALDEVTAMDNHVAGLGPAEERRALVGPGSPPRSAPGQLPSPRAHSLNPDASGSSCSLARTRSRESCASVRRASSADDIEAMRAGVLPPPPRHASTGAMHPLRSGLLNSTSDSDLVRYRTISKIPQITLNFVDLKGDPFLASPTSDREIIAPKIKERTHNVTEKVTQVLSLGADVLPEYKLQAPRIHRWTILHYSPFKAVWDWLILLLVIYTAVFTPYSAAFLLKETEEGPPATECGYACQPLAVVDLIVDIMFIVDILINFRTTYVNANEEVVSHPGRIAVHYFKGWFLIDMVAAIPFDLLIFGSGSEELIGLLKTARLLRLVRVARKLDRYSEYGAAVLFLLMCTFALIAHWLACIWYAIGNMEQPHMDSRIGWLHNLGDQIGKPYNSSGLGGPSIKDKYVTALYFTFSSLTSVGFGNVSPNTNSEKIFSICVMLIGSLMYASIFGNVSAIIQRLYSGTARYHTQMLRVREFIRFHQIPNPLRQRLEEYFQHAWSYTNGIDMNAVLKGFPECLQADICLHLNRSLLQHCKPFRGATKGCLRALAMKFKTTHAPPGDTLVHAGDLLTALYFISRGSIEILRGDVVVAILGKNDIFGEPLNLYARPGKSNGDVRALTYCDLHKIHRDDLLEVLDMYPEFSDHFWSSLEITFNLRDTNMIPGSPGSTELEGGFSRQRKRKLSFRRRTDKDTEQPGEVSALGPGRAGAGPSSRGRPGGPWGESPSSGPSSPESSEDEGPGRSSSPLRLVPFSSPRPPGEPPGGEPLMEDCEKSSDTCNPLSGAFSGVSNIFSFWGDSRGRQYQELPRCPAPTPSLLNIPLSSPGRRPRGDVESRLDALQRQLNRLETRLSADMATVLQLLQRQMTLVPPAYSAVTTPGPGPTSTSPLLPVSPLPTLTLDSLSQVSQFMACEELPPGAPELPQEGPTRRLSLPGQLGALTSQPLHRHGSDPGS
- test-protocol: primary screen, population patch clamp on CHO cells stably expressing hERG; higher = less effect of the substance
Out of some 310,000 compounds screened, about 14,000 (4.5%) showed an effect of 50% or more. Effects have a minus sign here. Many of the other results were omitted from the sample, so strong results are more common in it than they were.
Reply numerically in %, unit not repeated.

Previously resolved entries follow.
| structure-smiles | system-under-test | quantitative-result |
| --- | --- | --- |
| O=C(C1=C[C@H](c2ccc3c(c2)OCO3)C[C@H](OCCCCO)O1)N1CCN(Cc2ccc3c(c2)OCO3)CC1 | human ether-à-go-go-related gene (hERG) potassium channel (human) | -69.1 |
| O=C(C1=C[C@@H](c2ccc(C(F)(F)F)cc2)C[C@@H](OCCCCO)O1)N1CCN(Cc2ccc3c(c2)OCO3)CC1 | human ether-à-go-go-related gene (hERG) potassium channel (human) | -68.8 |
| CC(C)(C)[C@H]1C=C(C(=O)N2CCN(Cc3ccc4c(c3)OCO4)CC2)O[C@@H](OCCCCO)C1 | human ether-à-go-go-related gene (hERG) potassium channel (human) | -23.4 |

Requested read-out: hERG current change (%, negative = inhibition) at 10uM. Entry: "O=C(C1=C[C@H](c2ccc(C(F)(F)F)cc2)C[C@H](OCCCCO)O1)N1CCN(Cc2ccc3c(c2)OCO3)CC1" -44.1
